test: Aqueous solubility of quercetin without and with sulfated beta-cyclodextrin (UV absorbance at 375 nm); type: physicochemical; conditions: aqueous sulfated beta-cyclodextrin solution, aqueous with cosolvent or surfactant or cyclodextrin, in 2 mM sulfated beta-cyclodextrin
assay.readout: solubility (µM)
Numeric only. Scale: µM

Memo: O=c1c(O)c(-c2ccc(O)c(O)c2)oc2cc(O)cc(O)c12 [quercetin] , reported solubility: 73
